# EC50 measurements, system: Androgen receptor (Homo sapiens, UniProt P10275)
# Sequence (P10275 whole entry): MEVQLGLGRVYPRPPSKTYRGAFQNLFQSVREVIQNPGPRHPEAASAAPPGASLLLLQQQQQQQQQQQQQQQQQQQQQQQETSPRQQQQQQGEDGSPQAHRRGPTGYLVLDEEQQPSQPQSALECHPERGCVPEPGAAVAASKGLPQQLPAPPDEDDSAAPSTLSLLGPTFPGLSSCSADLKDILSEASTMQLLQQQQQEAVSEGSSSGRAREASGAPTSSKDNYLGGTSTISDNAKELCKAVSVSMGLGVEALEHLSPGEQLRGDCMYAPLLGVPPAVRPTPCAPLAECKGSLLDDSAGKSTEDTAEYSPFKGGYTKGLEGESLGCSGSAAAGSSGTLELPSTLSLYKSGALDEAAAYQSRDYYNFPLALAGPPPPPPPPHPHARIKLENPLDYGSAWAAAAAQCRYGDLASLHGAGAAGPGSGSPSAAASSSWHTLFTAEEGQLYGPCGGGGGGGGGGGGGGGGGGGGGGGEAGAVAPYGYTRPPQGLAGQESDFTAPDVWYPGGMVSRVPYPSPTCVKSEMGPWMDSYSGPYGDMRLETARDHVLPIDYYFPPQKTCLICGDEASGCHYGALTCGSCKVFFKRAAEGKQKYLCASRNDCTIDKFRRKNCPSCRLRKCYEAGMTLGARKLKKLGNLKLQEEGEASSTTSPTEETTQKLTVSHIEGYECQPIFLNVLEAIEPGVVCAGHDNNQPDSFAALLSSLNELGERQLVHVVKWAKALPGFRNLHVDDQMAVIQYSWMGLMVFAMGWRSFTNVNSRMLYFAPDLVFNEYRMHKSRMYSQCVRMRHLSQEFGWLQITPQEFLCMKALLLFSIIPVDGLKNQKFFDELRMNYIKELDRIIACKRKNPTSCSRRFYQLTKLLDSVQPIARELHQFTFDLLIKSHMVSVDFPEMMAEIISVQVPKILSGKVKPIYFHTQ
Hi! Could you send only the number? It should be in nM, unit omitted.

compound: COc1cccc2c1-c1ccc3[nH]c(=O)cc(C)c3c1C(OC)O2 (stereo not drawn)
target.desc: Androgen receptor (Homo sapiens, UniProt P10275)
EC50, nM: 184
//
compound: COc1cccc2c1-c1ccc3[nH]c(=O)cc(C)c3c1CO2
target.desc: Androgen receptor (Homo sapiens, UniProt P10275)
EC50, nM: 50
//
compound: Cc1cc(=O)[nH]c2ccc3c4c(C(=O)OC(C)(C)C)cccc4oc(=O)c3c12
target.desc: Androgen receptor (Homo sapiens, UniProt P10275)
EC50, nM: 1.1
//
compound: COc1cccc2oc(=O)c3c(ccc4[nH]c(=O)cc(C)c43)c12
target.desc: Androgen receptor (Homo sapiens, UniProt P10275)
EC50, nM: 11
//
compound: COc1c(C(=O)OC(F)(F)F)ccc2oc(=O)c3c(ccc4[nH]c(=O)cc(C)c43)c12
target.desc: Androgen receptor (Homo sapiens, UniProt P10275)
EC50, nM: 43

(Q) For the compound `COc1cccc2c(=O)oc3c(ccc4[nH]c(=O)cc(C(F)(F)F)c43)c12` , what EC50 is on record?
(A) 90

(Q) For the compound COc1cccc2c1-c1ccc3[nH]c(=O)cc(C)c3c1C(O)O2 (stereo not drawn) , what EC50 is on record?
(A) 208

(Q) For the compound `COc1c(O)ccc2oc(=O)c3c(ccc4[nH]c(=O)cc(C)c43)c12` , what EC50 is on record?
(A) 21

(Q) For the compound `COc1c(OC(C)C)ccc2oc(=O)c3c(ccc4[nH]c(=O)cc(C)c43)c12` , what EC50 is on record?
(A) 23

(Q) For the compound `CCOc1ccc2oc(=O)c3c(ccc4[nH]c(=O)cc(C)c43)c2c1OC` , what EC50 is on record?
(A) 18
